Cited source: PubChem BioAssay

# System: Sam68 (KHDRBS1)
# Experiment: Sam68 small-molecule binders, primary screen, biochemical, small-molecule microarray, 635 nm fluorescence (AID 1125);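 also: score merges 667 nm channel intensity with signal to noise over triplicate slides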
# Settings: small-molecule microarray binding, higher = more signal
Give class 1 when the value for composite z-score is at least 0.2. Give class 0 when it is less.

Examples with answers:
{"Compound": "CCOC(=O)[C@H](CC(C)C)NC(=O)CCC1CC(OC(=O)NCc2cccc3ccccc23)CC2(CCCC(COC(=O)NCCC(C)C)O2)O1 (stereo partly specified)", "Measured target": "Sam68 (KHDRBS1)", "Class name": "class 0"}
{"Compound": "O=C1[C@H]2[C@H]3[C@H](O)[C@H](O)CC(=NOC[C@@H](O)COCc4ccco4)[C@H]3CC[C@H]2C(=O)N1C[C@@H]1CCCO1", "Measured target": "Sam68 (KHDRBS1)", "Class name": "class 1"}
{"Compound": "COC(=O)CC=C[C@@H](C)[C@@H]1C=C[C@H](O)[C@@H](CO)O1", "Measured target": "Sam68 (KHDRBS1)", "Class name": "class 0"}

Query block: Check this compound for composite z-score at or above 0.2: CO[C@H]1COC(=O)CC=C[C@H](C)[C@@H](OC)COC(=O)[C@@H](C)COC(=O)CC=C[C@@H]1C
Result block: class 0

Query block: Check this compound for composite z-score at or above 0.2: CO[C@H]1COC(=O)[C@H](C)NC(=O)[C@@H](C)COC(=O)[C@H]2CCCN2C(=O)CC=C[C@H]1C
Result block: class 1

Query block: Check this compound for composite z-score at or above 0.2: C[C@@H](c1ccccc1)N1C(=O)[C@H]2[C@H]3[C@H](O)[C@H](O)CC(=O)[C@H]3CC[C@H]2C1=O
Result block: class 1

Query block: Check this compound for composite z-score at or above 0.2: COC(=O)[C@H]1[C@@H](O)[C@@]2(O)c3ccccc3O[C@@]2(c2ccccc2)[C@@H]1c1ccccc1
Result block: class 0

Query block: Check this compound for composite z-score at or above 0.2: C[C@H](ON=C1[C@H]2CCn3c(=O)n(-c4ccccc4)c(=O)n3[C@H]2[C@H](O)[C@@H]2O[C@H]12)c1cn([C@H](CO)Cc2ccccc2)nn1
Result block: class 0

Query block: Check this compound for composite z-score at or above 0.2: CC(C)=CCCC(C)=CCON=C1C[C@@H](O)[C@@H](O)[C@@H]2[C@@H]3C(=O)N(c4ccc(F)cc4F)C(=O)[C@@H]3CC[C@@H]12
Result block: class 1

Query block: Check this compound for composite z-score at or above 0.2: C=CC[C@@H]1C=C[C@H](ON=C(C)CCC(=O)OC[C@H]2O[C@H](C#Cc3ccccc3)C=C[C@@H]2Oc2ccc(C)cc2)[C@@H](CO)O1
Result block: class 1
